B1: minF1; a variant is named by its letters at N, in order (parent)
chain: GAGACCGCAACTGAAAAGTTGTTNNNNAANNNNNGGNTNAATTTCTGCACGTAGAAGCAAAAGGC

# Variants of: B1
# measurement-protocol: fraction ligated after 30 min (ligated reads / total reads); higher = more ligase activity
# condition: with F1*subA RNA substrate (template-directed ligation), 42 °C
Quick rule for you: fraction ligated at 0.004 or higher means yes, lower means no.

[
  {
    "mutant-code": "ATCGATGGAGT G35T T38G A40T A41G",
    "classification": "no"
  },
  {
    "mutant-code": "TCAATGATGTG",
    "classification": "no"
  },
  {
    "mutant-code": "ATCAAGGATTG A28G",
    "classification": "no"
  }
]

[Q] Record TCAAGGATGTG A29T ; criterion: fraction ligated no lower than 0.004. Met?
[A] yes

[Q] Record `ATAGATGATTG` ; criterion: fraction ligated no lower than 0.004. Met?
[A] no

[Q] Record `ATAGTGGTGTG` ; criterion: fraction ligated no lower than 0.004. Met?
[A] no

[Q] Record ATCAATGAGTG A28G ; criterion: fraction ligated no lower than 0.004. Met?
[A] no

[Q] Record ATCAGGATGTG A28G ; criterion: fraction ligated no lower than 0.004. Met?
[A] yes
